Hey, just so you know, these numbers are from ChEMBL document CHEMBL1134799.

- assay method text: Tmax was determined
- Format: ADME
// values below are reported Tmax
readout kind: Tmax

• CC1OC(/C=C/C2CC2)(C(F)(F)F)c2cc(Cl)ccc2NC1=O (configuration not stated) = 11 h
• C[C@@H]1O[C@](C#CC2CC2)(C(F)(F)F)c2cc(Cl)ccc2NC1=O (relative stereo) = 6 h

----------
- target under test: Human immunodeficiency virus type 1 reverse transcriptase (Human immunodeficiency virus 1, UniProt Q72547)
- assay method text: Compound was evaluated for its ability to inhibit HIV-1 Reverse Transcriptase in an in vitro enzyme assay
pIC50: −log10 of the molar value.
readout kind: pIC50

- CC[C@H]1O[C@](C#CC2CC2)(C(F)(F)F)c2cc(F)ccc2NC1=O: 5.94
- O=C1COC(C#Cc2ccccc2)(C(F)(F)F)c2cc(Cl)ccc2N1 (stereo not drawn): 5.48
- C[C@@H]1O[C@](C#CC2CC2)(C(F)(F)F)c2cc(F)ccc2NC1=O: 7.02
- C[C@H]1O[C@](C#CC2CC2)(C(F)(F)F)c2cc(F)ccc2NC1=O: 5.71
- O=C1Nc2ccc(Cl)cc2C(C#CC2CC2)(C(F)(F)F)OC1CC(F)(F)F (stereo not drawn): 6.63
- CC1OC(/C=C/C2CC2)(C(F)(F)F)c2c(ccc(F)c2F)NC1=O (stereo not drawn): 6.76
- O=C1COC(C#Cc2ccoc2)(C(F)(F)F)c2cc(Cl)ccc2N1 (stereo not drawn): 5.60
- CC(C)C1OC(C#CC2CC2)(C(F)(F)F)c2cc(Cl)ccc2NC1=O (stereo not drawn): 6.22
- CCC1OC(/C=C/C2CC2)(C(F)(F)F)c2cc(Cl)ccc2NC1=O (stereo not drawn): 6.73
- CCCC1OC(C#CC2CC2)(C(F)(F)F)c2cc(Cl)ccc2NC1=O (stereo not drawn): 6.10
- CCC#CC1(C(F)(F)F)OCC(=O)Nc2ccc(Cl)cc21 (stereo not drawn): 6.02
- CC1OC(C#CC2CC2)(C(F)(F)F)c2c(ccc(F)c2F)NC1=O (stereo not drawn): 6.71
- CCC1OC(/C=C/C2CC2)(C(F)(F)F)c2cc(F)ccc2NC1=O (stereo not drawn): 6.82
- CC1OC(/C=C/C2CC2)(C(F)(F)F)c2cc(F)ccc2NC1=O (stereo not drawn): 6.89
- C[C@@H]1O[C@](C#CC2CC2)(C(F)(F)F)c2cc(Cl)ccc2NC1=O (relative stereo): 7.09
- O=C1Nc2ccc(Cl)cc2[C@@](/C=C/C2CC2)(C(F)(F)F)N1: 7.64
- CC(C)C#CC1(C(F)(F)F)OCC(=O)Nc2ccc(Cl)cc21 (stereo not drawn): 6.37
- CC[C@@H]1O[C@](C#CC2CC2)(C(F)(F)F)c2cc(F)ccc2NC1=O: 6.77
- O=C1COC(/C=C/C2CC2)(C(F)(F)F)c2cc(Cl)ccc2N1 (stereo not drawn): 6.97
- CC1OC(/C=C/C2CC2)(C(F)(F)F)c2cc(Cl)ccc2NC1=O (stereo not drawn): 7.34
- O=C1COC(C#CC2CC2)(C(F)(F)F)c2cc(Cl)ccc2N1 (stereo not drawn): 6.36
- O=C1Nc2ccc(Cl)cc2[C@@](C#CC2CC2)(C(F)(F)F)N1: 7.49
- C[C@H]1O[C@](C#CC2CC2)(C(F)(F)F)c2cc(Cl)ccc2NC1=O: 6.60

----------
- Test system: Human immunodeficiency virus type 1 reverse transcriptase (Human immunodeficiency virus 1), Q72547 [K103N]
// values below are reported IC90
readout kind: IC90 (nM)

* C[C@@H]1O[C@](C#CC2CC2)(C(F)(F)F)c2cc(F)ccc2NC1=O | 333
* CC1OC(/C=C/C2CC2)(C(F)(F)F)c2cc(Cl)ccc2NC1=O (stereo not drawn) | 35
* CC1OC(C#CC2CC2)(C(F)(F)F)c2c(ccc(F)c2F)NC1=O (stereo not drawn) | 75
* CC1OC(/C=C/C2CC2)(C(F)(F)F)c2cc(F)ccc2NC1=O (stereo not drawn) | 118
* CC1OC(/C=C/C2CC2)(C(F)(F)F)c2c(ccc(F)c2F)NC1=O (stereo not drawn) | 81
* CC(C)C#CC1(C(F)(F)F)OCC(=O)Nc2ccc(Cl)cc21 (stereo not drawn) | 784
* CCC1OC(/C=C/C2CC2)(C(F)(F)F)c2cc(Cl)ccc2NC1=O (stereo not drawn) | 13
* C[C@@H]1O[C@](C#CC2CC2)(C(F)(F)F)c2cc(Cl)ccc2NC1=O (relative stereo) | 29
* CCC#CC1(C(F)(F)F)OCC(=O)Nc2ccc(Cl)cc21 (stereo not drawn) | 1760
* C[C@H]1O[C@](C#CC2CC2)(C(F)(F)F)c2cc(Cl)ccc2NC1=O | 1130
* O=C1Nc2ccc(Cl)cc2[C@@](C#CC2CC2)(C(F)(F)F)N1 | 10
* CC[C@@H]1O[C@](C#CC2CC2)(C(F)(F)F)c2cc(F)ccc2NC1=O | 117
* CCC1OC(C#CC2CC2)(C(F)(F)F)c2cc(Cl)ccc2NC1=O (stereo not drawn) | 139
* O=C1COC(C#Cc2ccccc2)(C(F)(F)F)c2cc(Cl)ccc2N1 (stereo not drawn) | 4100
* O=C1Nc2ccc(Cl)cc2[C@@](/C=C/C2CC2)(C(F)(F)F)N1 | 27
* CCC1OC(/C=C/C2CC2)(C(F)(F)F)c2cc(F)ccc2NC1=O (stereo not drawn) | 70
* O=C1COC(C#CC2CC2)(C(F)(F)F)c2cc(Cl)ccc2N1 (stereo not drawn) | 1400
* O=C1COC(/C=C/C2CC2)(C(F)(F)F)c2cc(Cl)ccc2N1 (stereo not drawn) | 362

----------
- target under test: Human immunodeficiency virus type 1 reverse transcriptase (Human immunodeficiency virus 1)
- assay method text: Inhibition of HIV-1 Reverse Transcriptase in an in vitro enzyme assay
pIC50: −log10 of the molar value.
readout kind: pIC50

• CCC1OC(C#CC2CC2)(C(F)(F)F)c2cc(Cl)ccc2NC1=O (stereo unspecified) = 6.41

----------
// values below are reported log10 IC90
- target under test: Human immunodeficiency virus type 1 reverse transcriptase (Human immunodeficiency virus 1) (UniProt Q72547)
readout kind: log10 IC90 (log10 of the value in nM)

* O=C1Nc2ccc(Cl)cc2[C@@](/C=C/C2CC2)(C(F)(F)F)N1 | 0.32
* C[C@@H]1O[C@](C#CC2CC2)(C(F)(F)F)c2cc(Cl)ccc2NC1=O (relative stereo) | 0.34
* C[C@H]1O[C@](C#CC2CC2)(C(F)(F)F)c2cc(Cl)ccc2NC1=O | 0.85
* CC[C@H]1O[C@](C#CC2CC2)(C(F)(F)F)c2cc(F)ccc2NC1=O | 1.94
* C[C@H]1O[C@](C#CC2CC2)(C(F)(F)F)c2cc(F)ccc2NC1=O | 2.28
* O=C1COC(C#CC2CC2)(C(F)(F)F)c2cc(Cl)ccc2N1 (centres undefined) | 0.96
* CC(C)C1OC(C#CC2CC2)(C(F)(F)F)c2cc(Cl)ccc2NC1=O (centres undefined) | 1.32
* CCC1OC(/C=C/C2CC2)(C(F)(F)F)c2cc(F)ccc2NC1=O (centres undefined) | 0.40
* C[C@@H]1O[C@](C#CC2CC2)(C(F)(F)F)c2cc(F)ccc2NC1=O | 0.72
* O=C1COC(/C=C/C2CC2)(C(F)(F)F)c2cc(Cl)ccc2N1 (centres undefined) | 0.59
* CC1OC(/C=C/C2CC2)(C(F)(F)F)c2cc(F)ccc2NC1=O (centres undefined) | 0.88
* CC1OC(/C=C/C2CC2)(C(F)(F)F)c2cc(Cl)ccc2NC1=O (centres undefined) | 0.40
* CCC1OC(C#CC2CC2)(C(F)(F)F)c2cc(Cl)ccc2NC1=O (centres undefined) | 0.92
* CC(C)C#CC1(C(F)(F)F)OCC(=O)Nc2ccc(Cl)cc21 (centres undefined) | 0.99
* O=C1COC(C#Cc2ccoc2)(C(F)(F)F)c2cc(Cl)ccc2N1 (centres undefined) | 1.68
* O=C1Nc2ccc(Cl)cc2[C@@](C#CC2CC2)(C(F)(F)F)N1 | 0.30
* CC1OC(C#CC2CC2)(C(F)(F)F)c2c(ccc(F)c2F)NC1=O (centres undefined) | 0.76
* CCC1OC(/C=C/C2CC2)(C(F)(F)F)c2cc(Cl)ccc2NC1=O (centres undefined) | 0.89
* CCC#CC1(C(F)(F)F)OCC(=O)Nc2ccc(Cl)cc21 (centres undefined) | 0.96

----------
- target under test: Human immunodeficiency virus type 1 reverse transcriptase (Human immunodeficiency virus 1)
I'd appreciate it if you marked entries yes (1) when IC90 is lower than 20 nM and no (0) when it is not.

* CC1OC(/C=C/C2CC2)(C(F)(F)F)c2c(ccc(F)c2F)NC1=O (stereo not given) | yes (1)
* O=C1COC(C#Cc2ccccc2)(C(F)(F)F)c2cc(Cl)ccc2N1 (stereo not given) | no (0)
* CC[C@@H]1O[C@](C#CC2CC2)(C(F)(F)F)c2cc(F)ccc2NC1=O | yes (1)
* O=C1Nc2ccc(Cl)cc2C(C#CC2CC2)(C(F)(F)F)OC1CC(F)(F)F (stereo not given) | yes (1)
* CCCC1OC(C#CC2CC2)(C(F)(F)F)c2cc(Cl)ccc2NC1=O (stereo not given) | yes (1)
